assay_comment: Serum concentrations in the rat after oral administration
Format: in vivo
stated_conditions: rat, in vivo, po, 100 mg/kg, 100 mg/kg per os; 0.5 hours; read-out: Serum concentration, average
quantity_name: concentration at 0.5 h (ng/mL)
Please respond with the number in ng/mL and leave the unit unwritten.

Query: Quick one: concentration at 0.5 h of CC[C@H]1OC(=O)[C@H](C)[C@@H](O[C@H]2C[C@@](C)(OC)[C@@H](O)[C@H](C)O2)[C@H](C)[C@@H](O[C@@H]2O[C@H](C)C[C@H](N(C)C)[C@H]2O)[C@](C)(O)C[C@](C)(F)C(=O)[C@H](C)[C@@H](O)[C@]1(C)O ?
Result: 638
